Biological target: Cell division protein FtsZ (Bacillus subtilis) (UniProt A5Z1V5)
Sequence (whole entry): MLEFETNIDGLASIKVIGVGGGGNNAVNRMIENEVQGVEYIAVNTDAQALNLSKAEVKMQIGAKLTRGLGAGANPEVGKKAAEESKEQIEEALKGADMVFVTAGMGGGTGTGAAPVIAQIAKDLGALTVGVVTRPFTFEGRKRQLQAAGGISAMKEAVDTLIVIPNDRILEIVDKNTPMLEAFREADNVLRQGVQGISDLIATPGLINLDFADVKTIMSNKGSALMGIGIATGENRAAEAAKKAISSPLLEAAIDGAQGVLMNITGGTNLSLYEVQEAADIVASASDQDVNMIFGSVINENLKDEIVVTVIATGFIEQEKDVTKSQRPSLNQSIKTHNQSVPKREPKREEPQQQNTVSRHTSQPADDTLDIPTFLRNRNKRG
Test: Competitive binding affinity to Bacillus subtilis FtsZ at 10 uM in presence of PC190723 by fluorescence anisotropy analysis
The source made the active and inactive calls. No cut-off for these calls is given here.
MEASURE: Activity

>>> print(df.to_string())
                                   molecule                         target_under_test     value
0  CCCC(CNc1ccc([N+](=O)[O-])c2nonc12)Oc1ccc(F)c(C(N)=O)c1F (stereo not given)  Cell division protein FtsZ (Bacillus subtilis) (UniProt A5Z1V5)    Active
1  NC(=O)c1c(F)ccc(OCCNc2ccc([N+](=O)[O-])c3nonc23)c1F  Cell division protein FtsZ (Bacillus subtilis) (UniProt A5Z1V5)    Active
2  CCCCCCCCC(CNc1ccc([N+](=O)[O-])c2nonc12)Oc1ccc(F)c(C(N)=O)c1F (stereo not given)  Cell division protein FtsZ (Bacillus subtilis) (UniProt A5Z1V5)  inactive
3  CCCC(COc1ccc(F)c(C(N)=O)c1F)Nc1ccc([N+](=O)[O-])c2nonc12 (stereo not given)  Cell division protein FtsZ (Bacillus subtilis) (UniProt A5Z1V5)    Active
4  CCCCCC(CNc1ccc([N+](=O)[O-])c2nonc12)Oc1ccc(F)c(C(N)=O)c1F (stereo not given)  Cell division protein FtsZ (Bacillus subtilis) (UniProt A5Z1V5)  inactive
